This collection of values is drawn from paper PMC11323322.

- target-entity: sIL-6R (soluble IL-6 receptor alpha) (human, UniProt P08887 20-355)
- Sequence (P08887 20-355): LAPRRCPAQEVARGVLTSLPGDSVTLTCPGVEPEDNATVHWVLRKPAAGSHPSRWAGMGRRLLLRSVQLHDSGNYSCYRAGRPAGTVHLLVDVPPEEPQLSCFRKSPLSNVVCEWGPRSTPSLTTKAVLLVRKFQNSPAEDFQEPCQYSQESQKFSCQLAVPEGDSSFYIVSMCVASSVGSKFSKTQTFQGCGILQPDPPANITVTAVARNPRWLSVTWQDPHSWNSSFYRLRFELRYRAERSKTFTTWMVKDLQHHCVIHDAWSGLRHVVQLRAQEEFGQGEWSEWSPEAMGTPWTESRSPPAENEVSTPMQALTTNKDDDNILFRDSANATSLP
- protocol: MST; 1x PBSMT pH 7.2: 137 mM NaCl, 2.68 mM KCl, 8.1 mM Na2HPO4, 1.76 mM KH2PO4, 1 mM MgCl2, 0.025% Tween-20; pull-down 1 h (room temperature in SELEX); MST at 25 C
- test-conditions: protein: commercial; G4, 2-tiered
measured-parameter: Kd (µM)
Respond numerically; units are µM and should not be typed.

Q: I have this binder here, GGGGAGGCUGUGGUGAGGG (structured_RNA) [AIR-3A] , and I need its recorded Kd.
Result: 0.0675
